TARGET OR TEST SYSTEM: Src kinase (Homo sapiens, UniProt P12931)
Sequence (P12931 whole entry): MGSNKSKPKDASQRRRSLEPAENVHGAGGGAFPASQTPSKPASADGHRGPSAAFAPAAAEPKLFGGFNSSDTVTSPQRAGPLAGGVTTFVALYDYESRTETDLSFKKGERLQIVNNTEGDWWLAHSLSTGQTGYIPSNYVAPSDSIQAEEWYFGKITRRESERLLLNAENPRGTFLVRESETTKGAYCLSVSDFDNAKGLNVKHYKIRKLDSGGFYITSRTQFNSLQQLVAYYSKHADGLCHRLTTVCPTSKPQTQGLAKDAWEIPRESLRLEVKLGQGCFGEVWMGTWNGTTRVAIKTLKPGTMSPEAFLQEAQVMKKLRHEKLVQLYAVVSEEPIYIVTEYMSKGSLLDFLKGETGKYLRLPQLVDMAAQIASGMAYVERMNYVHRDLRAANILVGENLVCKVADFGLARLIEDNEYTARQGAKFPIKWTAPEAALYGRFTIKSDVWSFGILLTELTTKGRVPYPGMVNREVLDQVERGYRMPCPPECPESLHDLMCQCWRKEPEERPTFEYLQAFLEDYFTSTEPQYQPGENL
ASSAY NOTES: Z'-LYTE kinase inhibition, Src
TEST PARAMETERS: Src IC50 (nM), Table 4
MEASURED PARAMETER: IC50 (nM)

MOLECULE	MEASURED PARAMETER	UNIT NAME	MEASURED NUMBER
Cc1c(-c2cccc3ccccc23)c2c(N)ncnc2n1C(C)C (single isomer, unassigned) [(Ra)-9]	IC50	nM	1370

P. Cc1ccc(-c2c(C)n(C(C)C)c3ncnc(N)c23)c2ccccc12 (atropisomer, axis not shown; (Sa)) [(Sa)-11]
Q. COc1ccc(Cl)c(-c2c(C)n(C(C)C)c3ncnc(N)c23)c1 (single isomer, unassigned) [(Sa)-4]
R. COc1cc(-c2c(Cl)n(C(C)(C)C)c3ncnc(N)c23)c(Cl)cc1C (single isomer, unassigned) [(Sa)-3]
Q) List the 3 entries from lowest IC50 to highest IC50 value. Reply with the labels, ordered as the question asks.
A) Q, R, P
(Q: 406 nM, R: 918 nM, P: 4560 nM)

###

TARGET OR TEST SYSTEM: UniProt:P12931
ASSAY NOTES: Z'-LYTE kinase inhibition, Src
TEST PARAMETERS: read-out: Src IC50; Table 4
MEASURED PARAMETER: IC50

Q) What does the data say about its IC50? Entry: COc1ccc(-c2c(Cl)n(C(C)(C)C)c3ncnc(N)c23)c(C)c1 (atropisomer, axis not shown; (Ra)) [(Ra)-2]
A) > 10 µM

###

TARGET OR TEST SYSTEM: Src kinase (Homo sapiens, UniProt P12931)
ASSAY NOTES: Z'-LYTE kinase inhibition, Src
TEST PARAMETERS: Src IC50 (nM), Table 4
MEASURED PARAMETER: IC50 (nM)

MOLECULE	TARGET OR TEST SYSTEM	UNIT NAME	IC50
Cc1c(-c2cccc3ccccc23)c2c(N)ncnc2n1C(C)(C)C (atropisomer, axis not shown; (Ra)) [(Ra)-10]	Src kinase (Homo sapiens, UniProt P12931)	nM	5570

I. Cc1c(-c2cncc3ccccc23)c2c(N)ncnc2n1C(C)(C)C (single isomer, unassigned) [(Ra)-12]
II. COc1ccc(Cl)c(-c2c(C)n(C(C)C)c3ncnc(N)c23)c1 (single isomer, unassigned) [(Ra)-4]
III. Cc1c(-c2cncc3ccccc23)c2c(N)ncnc2n1C(C)(C)C (single isomer, unassigned) [(Sa)-12]
Q) List the 3 entries from lowest IC50 to highest IC50 value. Reply with the labels, ordered as the question asks.
A) III, II, I
(III: 316 nM, II: 1330 nM, I: 7450 nM)

###

TARGET OR TEST SYSTEM: Ret kinase (Homo sapiens)
Sequence (P07949 29-1114): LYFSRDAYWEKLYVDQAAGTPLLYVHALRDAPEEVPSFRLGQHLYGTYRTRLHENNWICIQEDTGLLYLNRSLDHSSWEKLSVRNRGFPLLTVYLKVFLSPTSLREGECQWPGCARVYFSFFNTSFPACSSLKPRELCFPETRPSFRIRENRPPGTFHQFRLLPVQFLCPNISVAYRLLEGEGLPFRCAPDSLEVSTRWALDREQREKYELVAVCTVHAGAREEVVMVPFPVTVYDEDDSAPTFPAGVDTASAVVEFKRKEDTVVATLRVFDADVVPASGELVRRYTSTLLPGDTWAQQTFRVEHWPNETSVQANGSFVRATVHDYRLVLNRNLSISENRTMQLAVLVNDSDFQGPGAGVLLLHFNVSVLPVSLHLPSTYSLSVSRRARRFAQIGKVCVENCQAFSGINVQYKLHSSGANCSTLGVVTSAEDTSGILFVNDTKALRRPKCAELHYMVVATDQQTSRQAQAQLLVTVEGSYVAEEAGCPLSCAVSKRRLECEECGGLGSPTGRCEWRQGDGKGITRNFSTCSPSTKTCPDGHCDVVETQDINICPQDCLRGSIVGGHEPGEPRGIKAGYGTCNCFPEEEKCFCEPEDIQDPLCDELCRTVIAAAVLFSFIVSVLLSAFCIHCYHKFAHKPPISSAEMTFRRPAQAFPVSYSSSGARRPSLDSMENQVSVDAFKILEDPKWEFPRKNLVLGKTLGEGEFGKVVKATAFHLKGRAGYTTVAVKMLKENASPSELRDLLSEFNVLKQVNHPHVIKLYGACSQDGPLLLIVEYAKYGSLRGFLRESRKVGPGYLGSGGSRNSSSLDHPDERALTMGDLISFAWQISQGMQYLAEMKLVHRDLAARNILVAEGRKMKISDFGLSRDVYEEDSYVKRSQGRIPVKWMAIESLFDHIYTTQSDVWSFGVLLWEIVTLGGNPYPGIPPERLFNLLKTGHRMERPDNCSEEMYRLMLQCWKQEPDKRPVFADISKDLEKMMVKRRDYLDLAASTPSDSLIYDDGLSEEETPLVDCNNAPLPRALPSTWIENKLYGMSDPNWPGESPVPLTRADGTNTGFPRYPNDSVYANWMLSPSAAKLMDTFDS
ASSAY NOTES: Z'-LYTE kinase inhibition, Ret
TEST PARAMETERS: Ret IC50 (nM), Table 4
MEASURED PARAMETER: IC50 (nM)

COMPOUND	IC50, nM
COc1ccc(Cl)c(-c2c(Br)n(C(C)(C)C)c3ncnc(N)c23)c1 (single isomer, unassigned) [(Sa)-6]	8000
COc1ccc(C)c(-c2c(Cl)n(C(C)(C)C)c3ncnc(N)c23)c1 (atropisomer, axis not shown; (Ra)) [(Ra)-1]	1580
COc1ccc(Cl)c(-c2c(C)n(C(C)C)c3ncnc(N)c23)c1 (single isomer, unassigned) [(Sa)-4]	2270
Cc1c(-c2cccc3ccccc23)c2c(N)ncnc2n1C(C)C (single isomer, unassigned) [(Sa)-9]	8810
COc1ccc(-c2c(Cl)n(C(C)(C)C)c3ncnc(N)c23)c(C)c1 (atropisomer, axis not shown; (Ra)) [(Ra)-2]	1870
COc1ccc(-c2c(C)n(C(C)(C)C)c3ncnc(N)c23)c(C)c1 (atropisomer, axis not shown; (Ra)) [(Ra)-7]	450
COc1ccc(-c2c(CN)n(C(C)(C)C)c3ncnc(N)c23)c(C)c1 (single isomer, unassigned) [(Sa)-8]	9070

A. COc1cc(-c2c(Cl)n(C(C)(C)C)c3ncnc(N)c23)c(Cl)cc1C (single isomer, unassigned) [(Ra)-3]
B. Cc1c(-c2cncc3ccccc23)c2c(N)ncnc2n1C(C)(C)C (single isomer, unassigned) [(Ra)-12]
C. COc1ccc(C)c(-c2c(C)n(C(C)(C)C)c3ncnc(N)c23)c1 (single isomer, unassigned) [(Sa)-5]
Q) List the 3 entries from lowest IC50 to highest IC50 value. Reply with the labels, ordered as the question asks.
A) B, C, A
(B: 282 nM, C: 2500 nM, A: 7070 nM)

###

TARGET OR TEST SYSTEM: Abl (Homo sapiens, UniProt P00519)
Sequence (P00519 whole entry): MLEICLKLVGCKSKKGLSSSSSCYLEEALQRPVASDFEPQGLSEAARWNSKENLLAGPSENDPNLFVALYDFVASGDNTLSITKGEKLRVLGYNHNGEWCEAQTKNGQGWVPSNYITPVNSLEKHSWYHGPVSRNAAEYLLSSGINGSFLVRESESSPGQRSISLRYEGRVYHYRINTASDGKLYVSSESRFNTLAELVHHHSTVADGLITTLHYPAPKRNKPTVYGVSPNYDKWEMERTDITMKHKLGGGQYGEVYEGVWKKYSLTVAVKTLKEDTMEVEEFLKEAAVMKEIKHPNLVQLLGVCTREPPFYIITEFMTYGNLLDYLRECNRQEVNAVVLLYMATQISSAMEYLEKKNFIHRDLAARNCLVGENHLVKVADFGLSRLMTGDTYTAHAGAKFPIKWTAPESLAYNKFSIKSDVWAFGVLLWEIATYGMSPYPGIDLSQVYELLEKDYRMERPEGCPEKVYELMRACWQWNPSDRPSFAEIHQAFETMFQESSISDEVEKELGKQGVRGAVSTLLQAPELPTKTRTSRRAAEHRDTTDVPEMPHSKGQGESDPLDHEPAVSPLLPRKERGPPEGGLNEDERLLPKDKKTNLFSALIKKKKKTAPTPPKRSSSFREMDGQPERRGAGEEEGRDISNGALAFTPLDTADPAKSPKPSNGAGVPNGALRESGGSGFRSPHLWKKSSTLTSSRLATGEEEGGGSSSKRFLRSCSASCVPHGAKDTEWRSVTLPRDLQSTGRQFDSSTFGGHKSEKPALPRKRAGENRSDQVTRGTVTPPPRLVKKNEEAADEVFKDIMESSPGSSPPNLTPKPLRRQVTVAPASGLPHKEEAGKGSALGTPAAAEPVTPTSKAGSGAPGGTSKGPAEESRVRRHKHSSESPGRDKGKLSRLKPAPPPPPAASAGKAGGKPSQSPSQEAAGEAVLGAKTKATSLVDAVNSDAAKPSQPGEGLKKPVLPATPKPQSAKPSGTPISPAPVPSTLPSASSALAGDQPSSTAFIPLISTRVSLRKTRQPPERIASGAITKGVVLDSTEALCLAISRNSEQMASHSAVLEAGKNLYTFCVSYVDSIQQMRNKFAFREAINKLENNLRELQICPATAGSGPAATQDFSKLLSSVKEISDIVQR
pIC50: −log10 of the molar value.
MEASURED PARAMETER: pIC50

Q) Form field: pIC50 recorded for COc1ccc(Cl)c(-c2c(Cl)n(C(C)(C)C)c3ncnc(N)c23)c1 (single isomer, unassigned) [2e-(R)] with Abl (Homo sapiens, UniProt P00519) (enter value)
A) ≤ 5.00

###

TARGET OR TEST SYSTEM: UniProt:P07949
ASSAY NOTES: Z'-LYTE kinase inhibition, Ret
TEST PARAMETERS: Ret IC50 (nM), Table 4
MEASURED PARAMETER: IC50 (nM)

a. COc1ccc(-c2c(C)n(C(C)(C)C)c3ncnc(N)c23)c(C)c1 (atropisomer, axis not shown; (Sa)) [(Sa)-7]
b. Cc1ccc(-c2c(C)n(C(C)C)c3ncnc(N)c23)c2ccccc12 (atropisomer, axis not shown; (Sa)) [(Sa)-11]
Q) Hi, I'm comparing a with b and wondering which one has the bigger number for IC50. Any idea? Kindly give the label for the entry you pick.
A) b
(b: 2860 nM, a: 918 nM)

1. COc1ccc(-c2c(Cl)n(C(C)(C)C)c3ncnc(N)c23)c(C)c1 (atropisomer, axis not shown; (Sa)) [(Sa)-2]
2. Cc1c(-c2cncc3ccccc23)c2c(N)ncnc2n1C(C)(C)C (single isomer, unassigned) [(Sa)-12]
3. COc1cc(-c2c(Cl)n(C(C)(C)C)c3ncnc(N)c23)c(Cl)cc1C (single isomer, unassigned) [(Sa)-3]
4. Cc1c(-c2cccc3ccccc23)c2c(N)ncnc2n1C(C)(C)C (single isomer, unassigned) [(Sa)-10]
5. COc1ccc(-c2c(CN)n(C(C)(C)C)c3ncnc(N)c23)c(C)c1 (single isomer, unassigned) [(Ra)-8]
Q) List the 5 entries from lowest IC50 to highest IC50 value. Reply with the labels, ordered as the question asks.
A) 2, 5, 1, 3, 4
(2: 17 nM, 5: 773 nM, 1: 3000 nM, 3: 4810 nM, 4: 9560 nM)

a. COc1ccc(C)c(-c2c(Cl)n(C(C)(C)C)c3ncnc(N)c23)c1 (atropisomer, axis not shown; (Sa)) [(Sa)-1]
b. COc1ccc(Cl)c(-c2c(C)n(C(C)C)c3ncnc(N)c23)c1 (single isomer, unassigned) [(Ra)-4]
Q) Please indicate which item has the smaller measured IC50: a versus b Kindly give the label for the entry you pick.
A) b
(b: 699 nM, a: 2240 nM)

###

ASSAY NOTES: Experimental measurement of the barriers to rotation (racemization followed by chiral HPLC)
Format: physicochemical
TEST PARAMETERS: observed rate constant of racemization in ethanol at the heating temperature (not given); in s^-1
MEASURED PARAMETER: kobs

TEST SMILES	kobs
COc1ccc(Br)c(-c2c(Cl)n(C(C)(C)C)c3ncnc(N)c23)c1	2.68E−05

P. COc1ccc(Cl)c(-c2c(Cl)n(C(C)(C)C)c3ncnc(N)c23)c1
Q. COc1ccc(Br)c(-c2c(Cl)n(C3CCCC3)c3ncnc(N)c23)c1
R. COc1ccc(Cl)c(-c2c(Cl)n(C3CCCC3)c3ncnc(N)c23)c1
Q) Thanks in advance: please rank these 3 entries by kobs, highest to lowest. Reply with the labels, ordered as the question asks.
A) R, P, Q
(R: 1.24E−04, P: 3.27E−05, Q: 1.01E−05)

###

ASSAY NOTES: Experimental measurement of the barriers to rotation (racemization followed by chiral HPLC)
Assay type: physicochemical
MEASURED PARAMETER: Barrier to Rotation (kcal/mol)

COMPOUND	MEASURED PARAMETER	UNIT NAME	MEASURED NUMBER
COc1ccc(Br)c(-c2c(Cl)n(C3CCCC3)c3ncnc(N)c23)c1 [Compound 1f]	Barrier to Rotation	kcal/mol	29.0
COc1ccc(Cl)c(-c2c(Cl)n(C(C)(C)C)c3ncnc(N)c23)c1 [Compound 2e]	Barrier to Rotation	kcal/mol	28.6
COc1ccc(Br)c(-c2c(Cl)n(C(C)(C)C)c3ncnc(N)c23)c1 [Compound 2f]	Barrier to Rotation	kcal/mol	30.4
COc1ccc(Cl)c(-c2c(Cl)n(C3CCCC3)c3ncnc(N)c23)c1 [Compound 1e]	Barrier to Rotation	kcal/mol	27.2
